Sourced from patent US10765644B2

# test.summary: HCV replicon assay, cytotoxicity (CytoTox-1 cell proliferation assay)
# Assay type: cell-based
# experimental.context: HCV replicon cells, In vitro HCV replicon assay, post infection, read-out: CC50 (concentration decreasing cell viability by 50%)
assay.endpoint: CC50 at 72 h (µM)

{"compound": "CC[C@H](c1ccc(O)cc1)[C@@H](CC)c1ccc(O)cc1 [Hexestrol, meso 3,4-bis(4-hydroxyphenyl)hexane]", "assay.endpoint": "CC50 at 72 h", "quantitative.result": 27.4}

###

# Test system: cell culture-derived HCV (HCVcc)
# test.summary: microbe, parasite or virus in culture
# Assay type: cell-based, hepatitis C virus
# experimental.context: Hepatitis C virus, Huh7.5, 72 h, read-out: EC50 (concentration inhibiting HCVcc infectivity by 50%)
pEC50: −log10 of the molar value.
assay.endpoint: pEC50

{"compound": "CC[C@H](c1ccc(O)cc1)[C@@H](CC)c1ccc(O)cc1 [Hexestrol, meso 3,4-bis(4-hydroxyphenyl)hexane]", "experimental.system": "cell culture-derived HCV (HCVcc)", "assay.endpoint": "pEC50", "quantitative.result": 5.55}

###

# test.summary: in vitro
# Assay type: cell-based
# experimental.context: human
assay.endpoint: CC50 at 72 h (µM)

{"compound": "CC[C@H](c1ccc(O)cc1)[C@@H](CC)c1ccc(O)cc1 [Hexestrol, meso 3,4-bis(4-hydroxyphenyl)hexane]", "quantitative.result": 50.4}
